// data source = the supplement of paper PMC13380429

Tested on: Vero E6 infected with SARS-CoV-2
Assay text: inhibition of SARS-CoV-2 cytopathic effect; higher = more antiviral protection, active = above 15
Measurement parameters: 833.33 nM; 48 h
Measured property: inhibition of SARS-CoV-2 cytopathic effect (%)

Structure smiles string: COc1ccc(CN2CCN(C(c3ccc(F)cc3)c3ccc(F)cc3)CC2)c(OC)c1OC
Assay system: Vero E6 infected with SARS-CoV-2
U: %
Recorded measurement: -4.97
--
Structure smiles string: Nc1nonc1/C(=N/O)Nc1ccc(F)c(Cl)c1
Assay system: Vero E6 infected with SARS-CoV-2
U: %
Recorded measurement: 0.57
--
Structure smiles string: C=C(c1ccccc1OCc1cccc(Cl)c1)n1ccnc1
Assay system: Vero E6 infected with SARS-CoV-2
U: %
Recorded measurement: 2.28
--
Structure smiles string: c1ccc(-c2oc3ncnc(NC[C@@H]4CCCO4)c3c2-c2ccccc2)cc1
Assay system: Vero E6 infected with SARS-CoV-2
U: %
Recorded measurement: 0.71
--
Structure smiles string: Cc1ccc(NC(=O)C(C)C)cc1C1CCN(Cc2ccc(Oc3ccc(F)c(F)c3)cc2)CC1
Assay system: Vero E6 infected with SARS-CoV-2
U: %
Recorded measurement: -4.89
--
Structure smiles string: Nc1c(CC(=O)O)cccc1C(=O)c1ccccc1
Assay system: Vero E6 infected with SARS-CoV-2
U: %
Recorded measurement: -0.82
--
Structure smiles string: CNCCn1c(=O)c2cc(OC)c(OC)cc2c2cnc3cc4c(cc3c21)OCO4
Assay system: Vero E6 infected with SARS-CoV-2
U: %
Recorded measurement: -9.93

====

Test system: Vero E6 infected with SARS-CoV-2
Assay text: inhibition of SARS-CoV-2 cytopathic effect; higher = more antiviral protection, active = above 15
Measurement parameters: 8.33 nM; 48 h
Measured property: inhibition of SARS-CoV-2 cytopathic effect (%)

Molecule: CCOC(=O)Nc1ccc2c(c1)N(C(=O)CN(C)C)c1ccccc1CC2
Recorded measurement: -0.87
//
Molecule: C[n+]1ccccc1C=NO
Recorded measurement: 0.25
//
Molecule: N#Cc1ccc(Cn2cncc2CN2CCN(c3cccc(Cl)c3)C(=O)C2)cc1
Recorded measurement: 3.01
//
Molecule: CNC(=O)[C@H](Cc1ccccc1)NC(=O)[C@H](CC(C)C)[C@H](CSc1cccs1)C(=O)NO
Recorded measurement: -1.84
//
Molecule: CN1CCc2cc(Cl)c(O)cc2[C@@H](c2ccccc2)C1
Recorded measurement: 6.47
//
Molecule: O=C(Nc1ccccc1)N1CCN(c2nc(-c3ccccc3)ns2)CC1
Recorded measurement: 1.97
//
Molecule: C=CCN1C[C@H](C)N([C@H](c2ccc(C(=O)N(CC)CC)cc2)c2cccc(O)c2)C[C@H]1C
Recorded measurement: 2.94
//
Molecule: CCCCN1[C@@H]2CC[C@H]1C[C@@H](OC(c1ccc(F)cc1)c1ccc(F)cc1)C2
Recorded measurement: 0.46
//
Molecule: CC(C)=CCC[C@](C)(O[C@@H]1O[C@H](CO)[C@@H](O)[C@H](O)[C@H]1O)[C@H]1CC[C@]2(C)[C@@H]1[C@H](O)C[C@@H]1[C@@]3(C)CC[C@H](O[C@@H]4O[C@H](CO)[C@@H](O)[C@H](O)[C@H]4O[C@@H]4O[C@H](CO)[C@@H](O)[C@H](O)[C@H]4O)C(C)(C)[C@@H]3CC[C@]12C [ginsenoside-RD]
Recorded measurement: -1
//
Molecule: Nc1ccc(S(=O)(=O)NC(=O)c2ccccc2)cc1 [sulfabenzamide]
Recorded measurement: -0.25
//
Molecule: CCCCCCCCCCCCCCCCCCOP(=O)([O-])OC1CC[N+](C)(C)CC1
Recorded measurement: -1.34
//
Molecule: CC[C@@H]1Cn2c(c3nc(-c4ccccc4)nc-3n(C)c2=O)N1
Recorded measurement: -0.25
//
Molecule: CON(C)C(=O)[C@H](O)[C@H](Cc1ccccc1)NC(=O)c1cc2cc(Cl)ccc2[nH]1
Recorded measurement: 0.53
//
Molecule: COc1ccc2[nH]c(C(=O)c3ccccc3)cc2c1
Recorded measurement: 1.49
//
Molecule: c1ccc([C@@H]2C[C@H]2NC2CCNCC2)cc1
Recorded measurement: 1.14
//
Molecule: O=C1CCC[C@@H]2[C@H]3CCC[N+]4([O-])CCC[C@@H](CN12)[C@@H]34 (some centres undefined)
Recorded measurement: 1.55
//
Molecule: C#Cc1cccc(Nc2ncnc3cc(OC)c(OCCCCCCC(=O)NO)cc23)c1
Recorded measurement: 5.38
//
Molecule: O=C(Nc1nc2ccc(NC(=O)C34CC5CC(CC(C5)C3)C4)cc2s1)c1ccccc1
Recorded measurement: 3.1
//
Molecule: CCOC(=O)[C@H](Cc1ccccc1)NC(=O)c1cc(Cl)c(OCCN2CCN(C)CC2)c(Cl)c1O
Recorded measurement: 1.91
//
Molecule: Oc1cc2c(cc1O)[C@@H]1c3ccc(O)c(O)c3OC[C@]1(O)C2
Recorded measurement: 1.95
//
Molecule: Oc1cc(Cl)ccc1Oc1ccc(Cl)cc1Cl
Recorded measurement: -0.14
//
Molecule: O=c1[nH]cnc2c1ncn2[C@H]1CC[C@@H](CO)O1
Recorded measurement: -2.03
//
Molecule: CN(C)CCCN1c2ccccc2Sc2ccc(Cl)cc21
Recorded measurement: 2.71
//
Molecule: O=C1C[C@@]2(C(=O)N1)C(=O)N(Cc1ccc(Br)cc1F)C(=O)c1cccn12
Recorded measurement: 1.21
